- TGT: nuclear factor-kappa B (NF-kB)-inducing kinase (NIK) (Homo sapiens, UniProt Q99558)
- Construct: made in house; host or cells: baculovirus-infected insect cells
- Sequence (Q99558 whole entry): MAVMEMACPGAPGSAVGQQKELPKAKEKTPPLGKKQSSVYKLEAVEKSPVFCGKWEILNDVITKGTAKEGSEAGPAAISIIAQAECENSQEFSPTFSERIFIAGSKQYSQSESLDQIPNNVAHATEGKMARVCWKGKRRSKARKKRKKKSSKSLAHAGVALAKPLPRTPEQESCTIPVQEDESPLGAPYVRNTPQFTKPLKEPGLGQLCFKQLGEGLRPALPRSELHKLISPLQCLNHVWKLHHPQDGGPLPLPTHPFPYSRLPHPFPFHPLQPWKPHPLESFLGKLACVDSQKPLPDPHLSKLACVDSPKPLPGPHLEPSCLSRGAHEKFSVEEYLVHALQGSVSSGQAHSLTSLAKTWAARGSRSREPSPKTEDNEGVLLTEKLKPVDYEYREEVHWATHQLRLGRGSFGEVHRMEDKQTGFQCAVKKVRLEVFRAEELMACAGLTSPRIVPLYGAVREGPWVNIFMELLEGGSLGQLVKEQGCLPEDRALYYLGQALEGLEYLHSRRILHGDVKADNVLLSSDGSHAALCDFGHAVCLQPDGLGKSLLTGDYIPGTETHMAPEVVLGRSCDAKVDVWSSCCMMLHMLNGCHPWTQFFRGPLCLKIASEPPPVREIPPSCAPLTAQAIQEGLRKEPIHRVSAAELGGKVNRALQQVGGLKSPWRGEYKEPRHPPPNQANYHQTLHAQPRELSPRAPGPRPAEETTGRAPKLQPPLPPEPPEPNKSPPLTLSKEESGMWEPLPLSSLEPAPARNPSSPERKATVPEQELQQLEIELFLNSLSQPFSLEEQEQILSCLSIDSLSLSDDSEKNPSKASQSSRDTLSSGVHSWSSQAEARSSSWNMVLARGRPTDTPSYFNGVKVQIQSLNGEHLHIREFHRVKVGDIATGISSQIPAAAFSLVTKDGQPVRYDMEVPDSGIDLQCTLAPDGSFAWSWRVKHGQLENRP
- ASSAY: NIK enzyme inhibition assay (Transcreener ADP fluorescence polarization, NIK ADP-FP)
- Assay type: biochemical
Recorded log10 Ki values for a group of molecules are listed next.
ATTRIBUTE_MEASURED: log10 Ki (log10 of the value in nM)

[[record]]
smiles_representation = "CN1CC[C@@](O)(C#Cc2cccc(-c3nc(OC4COC4)cc(C(N)=O)n3)c2)C1=O"
reported = -0.32

[[record]]
smiles_representation = "CN1CCC[C@@](O)(C#Cc2cccc(-c3nc(C(N)=O)c(N)cc3F)c2)C1=O"
reported = 0.03

[[record]]
smiles_representation = "C[C@H]1CCN1c1cc(C(N)=O)nc(-c2cccc(C#C[C@]3(O)CCN(C)C3=O)c2)n1"
reported = 0.17

[[record]]
smiles_representation = "CN1CC[C@@](O)(C#Cc2cc(-c3cccc(C(N)=O)n3)c3ncsc3c2)C1=O"
reported = -0.30

[[record]]
smiles_representation = "COCCOc1nc(-c2cccc(C#C[C@]3(O)CCN(C)C3=O)c2)nc(C(N)=O)c1N"
reported = -0.19

[[record]]
smiles_representation = "CN1CC[C@@](O)(C#Cc2cccc(-c3ccc(C(F)F)c(C(N)=O)n3)c2)C1=O"
reported = -1.22

[[record]]
smiles_representation = "CN1CC[C@@](O)(C#Cc2cccc(-c3nc(C(N)=O)cc4nccn34)c2)C1=O"
reported = 0.64

[[record]]
smiles_representation = "COCCNc1ncc(-c2cc(C#C[C@]3(O)CCN(C)C3=O)ccc2F)nc1C(N)=O"
reported = -1.05

[[record]]
smiles_representation = "CN1CC[C@@](O)(C#Cc2cccc(-c3nc(C(N)=O)cc4c3cnn4C)c2)C1=O"
reported = -0.28


* * *

- TGT: nuclear factor-kappa B (NF-kB)-inducing kinase (NIK) (Homo sapiens)
- Construct: made in house; host or cells: baculovirus-infected insect cells
- ASSAY: NIK enzyme inhibition assay (Transcreener ADP fluorescence polarization, NIK ADP-FP)
- Type: biochemical
ATTRIBUTE_MEASURED: Ki

[[record]]
smiles_representation = "CN1CC[C@@](O)(C#Cc2cc(-c3nc(C(N)=O)cc4c3cnn4C)ccc2F)C1=O"
tgt = "nuclear factor-kappa B (NF-kB)-inducing kinase (NIK) (Homo sapiens)"
reported = "< 0.05 nM"

[[record]]
smiles_representation = "COc1cc(C(N)=O)nc(-c2cc(C#C[C@]3(O)CCN(C)C3=O)ccc2F)c1"
tgt = "nuclear factor-kappa B (NF-kB)-inducing kinase (NIK) (Homo sapiens)"
reported = "< 0.05 nM"

[[record]]
smiles_representation = "CN1CC[C@@](O)(C#Cc2cc(-c3ccc(N)c(C(N)=O)n3)ccc2F)C1=O"
tgt = "nuclear factor-kappa B (NF-kB)-inducing kinase (NIK) (Homo sapiens)"
reported = "< 0.05 nM"


Values from patent US20160185797A1
